biological target: US28 (Human cytomegalovirus, UniProt P69332); test: biochemical; assay type: binding, HCMV; settings: [125I]-RANTES binding at US28, COS-7 cells; N.A. = non active; read-out: IC50 binding
Sequence (P69332 whole entry): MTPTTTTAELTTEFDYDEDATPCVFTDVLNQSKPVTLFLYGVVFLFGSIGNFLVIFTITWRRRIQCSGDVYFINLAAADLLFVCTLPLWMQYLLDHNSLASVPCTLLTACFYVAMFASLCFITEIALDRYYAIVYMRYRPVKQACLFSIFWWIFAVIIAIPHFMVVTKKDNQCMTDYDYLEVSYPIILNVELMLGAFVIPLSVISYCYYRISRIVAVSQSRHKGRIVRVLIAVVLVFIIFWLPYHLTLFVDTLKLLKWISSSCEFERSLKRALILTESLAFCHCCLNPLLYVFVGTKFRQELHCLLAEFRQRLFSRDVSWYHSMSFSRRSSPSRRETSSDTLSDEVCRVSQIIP
observation type: IC50

Reported IC50 of N#CC(CCCN1CCC(c2ccc(Cl)cc2)CC1)(c1ccccc1)c1ccccc1 [VUF5662] : 10.5 µM

----------
The following compounds are shown together with reported pIC50 values.
Biological target: US28 (Human cytomegalovirus)
Experiment: cell-based
Set-up: species or system HCMV
Conditions: IC50 InsP, inhibition of US28-mediated InsP production, COS-7 cells; N.A. = non active
Procedure: Cell culture, transfection and infection with HCMV. COS-7 cells were grown as previously described in the cited Casarosa reference. Transfection of the COS-7 cells was performed by DEAE-dextran, using 2 µg of DNA of each US28 construct per million cells. Human foreskin fibroblasts (HFFs) were cultured and infected with […] (strain AD169) or a deletion mutant Δ28-HCMV. [^3H]-inositol phosphate production. […] Data analysis. […] Data are expressed as mean ± S.E. […]
API: returns pIC50 as number; meaning -log10 of concentration in mol/L.

Some compounds with known pIC50 results, for comparison:
# chemical structure, pIC50
records = [
    ("OC1(c2ccc(Cl)cc2)CCN(CCCC(c2ccccc2)c2ccccc2)CC1", 5.38),
    ("N#CC(CCCN1CCC(O)(c2ccc(Cl)cc2)CC1)(c1ccccc1)c1ccccc1", 5.46),
    ("N#CC(CCCN1CCC(c2ccc(Cl)cc2)CC1)(c1ccccc1)c1ccccc1", 4.85),
    ("N#CC1(CCCN2CCC(O)(c3ccc(Cl)cc3)CC2)c2ccccc2CCc2ccccc21", 5.28),
]

Reported pIC50 of "N#CC(CCCN1CCC(O)(c2ccccc2)CC1)(c1ccccc1)c1ccccc1" : 4.54

Each recorded value in this set is attributed to patent EP1393728A1.
